# target-under-test: arylalkylamine N-acetyltransferase like 7 (AANATL7) (Drosophila melanogaster, UniProt Q9W4Y1, R138A)
# run-description: intrinsic protein fluorescence quenching
# Assay type: binding
property: Kd (µM)

compound | measurement-units | observed-result
CC(C)(COP(=O)(O)OP(=O)(O)OC[C@H]1O[C@@H](n2cnc3c(N)ncnc32)[C@H](O)[C@@H]1OP(=O)(O)O)[C@@H](O)C(=O)NCCC(=O)NCCS [coenzyme A] | µM | 1100
